system: healthy human volunteers; experiment: Intraocular pressure (tonometry) in healthy human volunteers; format: in vivo; details: healthy human volunteers, Exp eye, baseline; dose μg: (2) 1; (7) 10; (3) 10; (9) 1; (10) 5
# maps each entry to its Intraocular pressure, time after administration 0 hours
measured quantity: Intraocular pressure, time after administration 0 hours (mmHg)

smiles	unit name	data value
CC(C)OC(=O)CCC/C=C\C[C@@H]1[C@@H](/C=C/C(=O)CCc2ccccc2)[C@H](O)C[C@@H]1O	mmHg	17.7
CC(C)OC(=O)CCC/C=C\C[C@@H]1[C@@H](CC[C@@H](O)CCc2ccccc2)[C@H](O)C[C@@H]1O	mmHg	14.2
CC(C)OC(=O)CCC/C=C\C[C@@H]1[C@@H](/C=C/[C@@H](O)CCc2ccccc2)[C@H](O)C[C@@H]1O	mmHg	11.9
CC(C)OC(=O)CCC/C=C\C[C@@H]1[C@@H](/C=C/[C@H](O)CCc2ccccc2)[C@H](O)C[C@@H]1O	mmHg	12.9
